- ASSAYED_SYSTEM: Sphingosine 1-phosphate receptor 2 (Homo sapiens, UniProt O95136)
- Sequence (O95136 whole entry): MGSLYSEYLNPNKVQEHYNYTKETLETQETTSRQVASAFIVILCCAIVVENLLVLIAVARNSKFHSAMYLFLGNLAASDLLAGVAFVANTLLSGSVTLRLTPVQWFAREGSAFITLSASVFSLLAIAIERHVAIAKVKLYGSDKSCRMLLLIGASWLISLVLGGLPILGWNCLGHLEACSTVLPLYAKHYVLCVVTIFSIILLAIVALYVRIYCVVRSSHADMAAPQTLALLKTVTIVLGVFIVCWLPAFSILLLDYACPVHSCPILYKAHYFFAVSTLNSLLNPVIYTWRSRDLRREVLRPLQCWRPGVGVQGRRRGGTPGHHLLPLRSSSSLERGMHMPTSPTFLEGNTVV
- TEST_PROTOCOL: Displacement of [33P]S1P from human recombinant S1P2 receptor expressed in HEK cells by scintillation counting
pIC50: −log10 of the molar value.
QUANTITY_MEASURED: pIC50

- CCC/N=C1\S/C(=C\c2ccc(OC[C@@H](O)CO)c(Cl)c2)C(=O)N1c1ccccc1C: < 5.00

----------
- ASSAYED_SYSTEM: Sphingosine 1-phosphate receptor 4 (Homo sapiens)
- Sequence (O95977 whole entry): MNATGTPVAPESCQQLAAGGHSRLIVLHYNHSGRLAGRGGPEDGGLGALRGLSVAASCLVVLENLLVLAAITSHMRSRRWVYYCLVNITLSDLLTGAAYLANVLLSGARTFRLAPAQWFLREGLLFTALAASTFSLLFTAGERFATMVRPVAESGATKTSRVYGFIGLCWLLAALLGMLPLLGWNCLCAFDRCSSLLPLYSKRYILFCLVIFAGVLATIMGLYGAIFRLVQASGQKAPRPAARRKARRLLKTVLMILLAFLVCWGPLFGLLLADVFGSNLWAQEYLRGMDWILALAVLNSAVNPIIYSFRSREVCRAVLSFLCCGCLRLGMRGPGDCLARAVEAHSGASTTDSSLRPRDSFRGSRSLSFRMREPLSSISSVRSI
- TEST_PROTOCOL: Agonist activity at human recombinant S1P4 receptor expressed in CHO cells by GTPgammaS binding assay
QUANTITY_MEASURED: EC50 (nM)

* CCC/N=C1\S/C(=C\c2ccc(OC[C@@H](O)CO)c(Cl)c2)C(=O)N1c1ccccc1C | 1110
* CCCCCCCCCCCCC/C=C/[C@@H](O)[C@@H](N)COP(=O)(O)O | 164
